This collection of values is drawn from the RNAGym collection of RNA variant scans (doi:10.1126/science.aae0568).

B1: tRNA (parent)
chain: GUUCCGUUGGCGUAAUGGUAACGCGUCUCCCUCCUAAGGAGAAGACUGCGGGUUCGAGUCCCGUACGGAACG

Variants of: B1
Test: yeast fitness relative to wild type (ratio to wild type); higher = fitter; tRNA-Arg(CCU), competitive growth, 37 C, YPD
Fewer inactive variants are shown than the library holds.

| Ordered residues | yeast fitness |
| --- | --- |
| GUUCCGUAGGCGUAAUGGUGACGCGUCUCCCUACUAAGGAGAAGACUGCGGGUUCGGGUCCCGUACGGAACG | ≤ 0.5 |
| GUUCCGUUGGCGUAAUGGUAACGCGUGUCCCUCCUAAGGAGAAGACUGUGGGUUGGAGUCCCGUACGGAACG | ≤ 0.5 |
| GUUCCGUUGGCGUAAUGGUAACGCGUCUCCCUCCUAAGGAGAAGACUUCGGGUUCGAGUCACGUACGGAACG | ≤ 0.5 |
| GUUCAGUUGGCGUAAUGGUAACGCGUCUCCUUCCCAAGGAGAAGACUGGGGGUUCGAGUCCCGUACGGAACG | ≤ 0.5 |
| GUUCCGUUGGCGUAAUGGUAACGCGUCUCCCUCCUAAGGAAAAGACUGCGGGUUCGAGUGCCGCGCGGAACG | ≤ 0.5 |
| GUUCCGUUGGCGUAAUGGUAACGCGUCUCCUUCGUAAGGAGAAGACUGCGGGUUCGAGUCCUGUACGGAGCG | ≤ 0.5 |
| GUUCCGUUCGCGUAAUGGUAACGCGUAGCCCUCCUAAGGAGAAGACUGCGGGUUCGAGUCCCGUACGGAACG | ≤ 0.5 |
| GUUCCGCUGGGGAAAUGGUAACGCGUCUUCCUCCUAAGGAGAAGACUGCGGGUUCGAGUCCCGUACGGUACG | ≤ 0.5 |
| GUUCCGCUGGCGUAAUGGUAACGCGUCUCCCUCCUAAGGAGAAGACUGCGAGUUCGAGUCCGGUGCGGAACG | ≤ 0.5 |
| GUUCCGUUAACGUAAUGGUAACGCGUCUCCGUCCUAAGGAGAAGACUGCGGAUUCGAGUCGCGUACGGAACG | ≤ 0.5 |
| GUUCCGUUGGCGUAAUGGUAACGCGCCUCGCUCCUAAGGAAAAGACUGCGGGUUCGAGUGCUGUACGAAACG | ≤ 0.5 |
| GUUCCGUUGGCGUAAUGGUAUCGCGUCUCACACCGAAGGAGAAGACUGCGGGUUCGAGUCCCGUACAGAACG | ≤ 0.5 |
| GUUCCGUUGGUGUAAUGGUAACGCGUCUCCCUCCUAAAGUGAAGACUGCGGCUUCGAGUCCCGUACGGAACG | 0.568 |
| GUUCCGUUGGCGUAAUGGUAUCGGGUCUCCCUCCUAAGGAGAAGACUGCGGGUGGGAGUCCUGUACGGAACG | ≤ 0.5 |
| GUUCCGUUGCCGUAAUGGUAACGCGUCUCCCUCCUAACGAGAAGACUGACGGUUCGAGUCCCGUACGCAACG | ≤ 0.5 |
| GUUCCGUUGGCGUAAUGGUAAUACGUCUCCCUCCUAAGGAGAAGACUGCGGGUUCAAGUCCCGUACGGAACG | ≤ 0.5 |
| GUUCCGUUAGCGUAAUGGUAACGCGUCUCCCUCCUAGGGAGAAGACUGCGGGUUCGAGUCCCGUACGGAACG | 0.795 |
| GAUCAGUUGGCGUAAUGGUAACGCGUCUCCCUCCUAAGGAGAAGACUCCGGGUUGGAGUCCCGUAAGGAACG | ≤ 0.5 |
| GUUCCGUUGGCGUAAUGGUAAAGCGUCUCCCUCCUAAGGAGAAGACUGCGGGGUCCAGUCCCGUACCGAACG | ≤ 0.5 |
| GUUUCGUUGGCGUAAUGGUAAGGCGUCUGCAUCCUAAGGAGAAGACUGCGGGUUCGAGUCCCGUACGGCACG | ≤ 0.5 |
| GUUCCGUUGGCGUAUUGGUAAGGCGUCUCCUUCCUAAGGAGAAGACUGCGGGUUCGCGUCCCGAACGAAACG | 0.553 |
| GUUCCGUUGGCAUAAUGGUGACGCGUCACCCUCCUAAGGAGAAGACUGCGGGUUAAAGUCCCGUACGGAACG | 0.537 |
| GUUCCGUUGGCGUAAUGGUAACGCGUCUCCCUCCUAAGGAGACGACUGCGGAUUCGAGUCCCGUACGGUACG | 0.508 |
| GUUCCGUUGGCGUAAUGGUAACGCGUCUCCUUCCUAAGGAGAAGACUGCGGGUUCGAGUUGCGUACGGAACG | ≤ 0.5 |
| GUUCCGUUGGCGUAAUGGUAACGCGUCUCCCUCCUAGGGAGUAGACUGCGGGUUCGAGUCCAGUCCGGAACG | ≤ 0.5 |
| GUUCCGUAGGCGUAAUGGUAACGCGUCUCCCUCCUAAGGAGAAGACUACGGGUUCGAGUCCCGUACGGAACG | 0.666 |
| GUUCCGUUGGCGUAAUGGUAACGCGUCUCCCUCCUAAGGAGCAGACUGCGGGUUCGAAUCCAGUACGGAACG | ≤ 0.5 |
| GUUACGUUGGCGUGAUGGUAACGCGUCUCCCUCCUCAGGAGAAGACUGCGGGUUCGAGACCCGUACGGAACG | 0.686 |
| GUUCCGUUGCCGUAAUGGUAACGCGUGUCCCUCCUAAGGAGCAGACUGAGGGUUCGAGUCCCGUACGGCACG | ≤ 0.5 |
| GUUCCAUUGGCGUAAUAGGAACGCGUCUCCCUCCUAAGGAGAAGACUGCGGGUUCGAGUCCCGUACGGUACG | 0.595 |
| GUACCGUUGGCGUAAUGGUAACGCGUCUCCCUCCUAAAGGGAAGACUGCGGGUUCGAGUCCCGUACGGUACG | ≤ 0.5 |
| GUUCCGUUGGCGUGAUGGUAACGCGUCGCCCUCCUAAGGACAAGACUACGGGUUCGAGUCCCGCACGGAACG | ≤ 0.5 |
